System: A549
Protocol summary: Euclidean distance of Cell Painting phenotypic profile (signed KS, 77 features) to DMSO centroid (dimensionless distance); 5 or 10 uM (library dependent); higher = stronger phenotypic change vs DMSO (phenoactivity)
Condition label: 48 h
Structures can show the parent of a compound that is named as a salt.
Everything with Euclidean distance lower than 1 is not fulfilled; everything else, including exactly 1, is fulfilled.

{"Compound": "CN1C(=O)CC(c2ccccc2)C1=O (stereo not drawn) [Phensuximide]", "Group": "fulfilled"}
{"Compound": "CN(C)Cc1ccc(-c2nc3cccc4c3n2CCNC4=O)cc1", "Group": "fulfilled"}
{"Compound": "CCN1CCN(c2cc3c(cc2F)c(=O)c(C(=O)O)cn3C2CC2)CC1", "Group": "fulfilled"}
{"Compound": "CC(=O)c1cc([N+](=O)[O-])c(Sc2ccc(F)cc2F)s1", "Group": "not fulfilled"}
{"Compound": "Cc1nc2cccc(N)c2c(=O)n1C1CCC(=O)NC1=O (stereo not drawn) [Avadomide(CC-122)]", "Group": "fulfilled"}
{"Compound": "CCCNC(C)C(=O)Nc1ccccc1C (stereo not drawn)", "Group": "not fulfilled"}
{"Compound": "CC(O)c1cc(C(=O)N[C@@H](C)Cn2ccc(-c3ccc(C#N)c(Cl)c3)n2)n[nH]1 (stereo partly drawn) [Darolutamide (ODM-201)]", "Group": "not fulfilled"}
{"Compound": "COC(=O)[C@@H]1[C@H]2C[C@H]3c4[nH]c5ccccc5c4CCN3C[C@@H]2CC[C@@H]1O [Yohimbine HCl]", "Group": "not fulfilled"}
{"Compound": "COc1cc2c(N3CCN(C(=O)Nc4ccc(OC(C)C)cc4)CC3)ncnc2cc1OCCCN1CCCCC1", "Group": "fulfilled"}
{"Compound": "COc1ccc(-c2ccc3c(N4CCOCC4)nc(N4C[C@@H](C)O[C@@H](C)C4)nc3n2)cc1CO", "Group": "fulfilled"}
{"Compound": "Cc1c(OCC(F)(F)F)ccnc1C[S@@+]([O-])c1nc2ccccc2[nH]1", "Group": "not fulfilled"}
{"Compound": "C[C@@H]1O[C@@H](OC[C@H]2O[C@@H](Oc3c(-c4ccc(O)c(O)c4)oc4cc(O)cc(O)c4c3=O)[C@H](O)[C@@H](O)[C@@H]2O)[C@H](O)[C@H](O)[C@H]1O", "Group": "not fulfilled"}
{"Compound": "CC(C)(C)c1cc(/C=C(\\C#N)C(N)=S)cc(C(C)(C)C)c1O", "Group": "fulfilled"}
{"Compound": "CC(C)NC[C@H](O)COc1ccc(CCOCC2CC2)cc1 [Levobetaxolol HCl]", "Group": "not fulfilled"}
{"Compound": "Nc1ccn([C@@H]2O[C@H](CO)[C@@H](O)[C@@H]2O)c(=O)n1 [Cytarabine]", "Group": "fulfilled"}
{"Compound": "C[C@H]1COc2c(C3(N)CC3)c(F)cc3c(=O)c(C(=O)O)cn1c23 [Pazufloxacin mesylate]", "Group": "fulfilled"}
{"Compound": "CCCN[C@H]1CCc2nc(N)sc2C1 [Pramipexole dihydrochloride]", "Group": "not fulfilled"}
{"Compound": "C[C@H](N[C@@H](CCc1ccccc1)C(=O)O)C(=O)N1CCC[C@H]1C(=O)O [Enalaprilat Dihydrate]", "Group": "fulfilled"}

* * *

System: FB
Protocol summary: Euclidean distance of Cell Painting phenotypic profile (signed KS, 77 features) to DMSO centroid (dimensionless distance); 5 or 10 uM (library dependent); higher = stronger phenotypic change vs DMSO (phenoactivity)
Condition label: 48 h
Counter-ions that a name gives are not always drawn.
Note that class boundaries on Euclidean distance are bottom range: < 1; center range: ≥ 1 and < 3; top range: ≥ 3

{"Compound": "Cc1c(CN2CCN(C(=O)[C@H](C)O)CC2)sc2c(N3CCOCC3)nc(-c3cnc(N)nc3)nc12", "System name": "FB", "Group": "top range"}
{"Compound": "Cc1ccnc2c1NC(=O)c1cccnc1N2C1CC1 [Nevirapine]", "System name": "FB", "Group": "bottom range"}
{"Compound": "C[C@]1(O)C[C@@H](c2nc(-c3ccc4ccc(-c5ccccc5)nc4c3)c3c(N)nccn32)C1 [OSI-906 (Linsitinib)]", "System name": "FB", "Group": "center range"}
{"Compound": "CCc1cnn2c(NCc3ccc[n+]([O-])c3)cc(N3CCCC[C@H]3CCO)nc12", "System name": "FB", "Group": "top range"}
{"Compound": "CS(=O)(=O)c1cccc(CNc2nc(Nc3ccc4c(c3)CCC(=O)N4)ncc2C(F)(F)F)c1", "System name": "FB", "Group": "top range"}
{"Compound": "CCN(CC)Cc1cc(Nc2ccnc3cc(Cl)ccc23)ccc1O [Amodiaquine dihydrochloride dihydrate]", "System name": "FB", "Group": "top range"}

* * *

Test system: OVCAR4
Protocol summary: Euclidean distance of Cell Painting phenotypic profile (signed KS, 77 features) to DMSO centroid (dimensionless distance); 5 or 10 uM (library dependent); higher = stronger phenotypic change vs DMSO (phenoactivity)
Condition label: 48 h
Structures can show the parent of a compound that is named as a salt.
Catalogue of Euclidean distance readings, one per entry.

{"Compound": "C1CNCCN1 [Piperazine]", "Euclidean distance": 1.67}
{"Compound": "C=C1/C(=C\\C=C2/CCC[C@]3(C)[C@@H]([C@H](C)/C=C/[C@@H](O)C4CC4)CC[C@@H]23)C[C@@H](O)C[C@@H]1O [Calcipotriene]", "Euclidean distance": 1.51}
{"Compound": "CN(Cc1cc(Br)cc(Br)c1N)C1CCCCC1 [Bromhexine]", "Euclidean distance": 1.03}
{"Compound": "O=C(c1ccccc1)c1ccc2n1CCC2C(=O)O (centres undefined) [Ketorolac]", "Euclidean distance": 1.06}
{"Compound": "CNC(=O)c1cc(Oc2ccc(NC(=O)Nc3ccc(Cl)c(C(F)(F)F)c3)c(F)c2)ccn1 [Regorafenib (BAY 73-4506)]", "Euclidean distance": 1.63}
{"Compound": "CN(NC(=O)CC(=O)NN(C)C(=S)c1ccccc1)C(=S)c1ccccc1 [Elesclomol (STA-4783)]", "Euclidean distance": 6.01}
{"Compound": "CCc1cc(Nc2nccc(-c3c(-c4ccc(OC)c(C(=O)Nc5c(F)cccc5F)c4)nc4ccccn34)n2)c(OC)cc1N1CCC(N2CCN(S(C)(=O)=O)CC2)CC1", "Euclidean distance": 1.26}
{"Compound": "CN(C)CCc1c[nH]c2ccc(C[C@H]3COC(=O)N3)cc12 [Zolmitriptan]", "Euclidean distance": 1.74}
{"Compound": "CN(C)C(=N)NC(=N)N [Metformin HCl]", "Euclidean distance": 1.78}
{"Compound": "O=c1c(-n2ccnn2)c[nH]n1-c1cc(N2CCOCC2)ncn1 [Molidustat (BAY 85-3934)]", "Euclidean distance": 1.19}
{"Compound": "CCOC(=O)c1ccc(N2NC(=O)C(=Cc3ccc([N+](=O)[O-])o3)C2=O)cc1", "Euclidean distance": 1.17}
{"Compound": "O=C(c1c(F)ccc(NS(=O)(=O)N2CC[C@@H](F)C2)c1F)c1c[nH]c2ncc(-c3cnc(C4CC4)nc3)cc12", "Euclidean distance": 1.44}
{"Compound": "O=C(Cc1cccc(OC(F)(F)F)c1)Nc1ccc(CCCCc2nnc(NC(=O)Cc3ccccn3)s2)nn1", "Euclidean distance": 2.28}
{"Compound": "Cc1ncc(-c2ccnc(Nc3ccc(S(C)(=O)=O)cc3)n2)n1C(C)C", "Euclidean distance": 3.43}
{"Compound": "CCOC(=O)CC(=O)N1CCSC1COc1ccccc1OC (centres undefined) [Moguisteine]", "Euclidean distance": 1.01}
{"Compound": "CO/N=C(\\C(=O)N[C@@H]1C(=O)N2C(C(=O)[O-])=C(C[n+]3cccc4c3CCC4)CS[C@H]12)c1csc(N)n1 [Cefpirome sulfate]", "Euclidean distance": 0.689}
{"Compound": "Cn1cc(-c2ccc3nnc(C(F)(F)c4ccc5ncccc5c4)n3n2)cn1", "Euclidean distance": 1.08}
{"Compound": "CN1C(=O)CC(c2ccccc2)C1=O (centres undefined) [Phensuximide]", "Euclidean distance": 0.954}
{"Compound": "COC(=O)C[C@](O)(CCCC(C)(C)O)C(=O)O[C@@H]1C(OC)=C[C@]23CCCN2CCc2cc4c(cc2[C@H]13)OCO4 [Homoharringtonine]", "Euclidean distance": 3.7}
{"Compound": "CC(CN(C)C)CN1c2ccccc2Sc2ccccc21 (centres undefined) [Alimemazine Tartrate]", "Euclidean distance": 1.33}
{"Compound": "CN1CCN(CCOc2cc(OC3CCOCC3)c3c(Nc4c(Cl)ccc5c4OCO5)ncnc3c2)CC1 [Saracatinib (AZD0530)]", "Euclidean distance": 3.34}
{"Compound": "C=CCc1cc(OC)c(O)c(C(=O)NCCO)c1 [Alibendol]", "Euclidean distance": 0.912}
{"Compound": "CC1=NN(c2ccc(C)c(C)c2)C(=O)/C1=N\\Nc1cccc(-c2cccc(C(=O)O)c2)c1O [Eltrombopag Olamine]", "Euclidean distance": 1.49}
{"Compound": "Cc1cn([C@@H]2C[C@@H](O)[C@H](CO)O2)c(=O)[nH]c1=O [Telbivudine]", "Euclidean distance": 1.12}
{"Compound": "CCC[C@@H]1C[C@@H](C(=O)N[C@@H]([C@H]2O[C@H](SC)[C@H](O)[C@@H](O)[C@H]2O)[C@@H](C)O)N(C)C1 [Lincomycin Hydrochloride Monohydrate]", "Euclidean distance": 1.41}
{"Compound": "CC(C)/N=c1\\cc2n(-c3ccc(Cl)cc3)c3ccccc3nc-2cc1Nc1ccc(Cl)cc1 [Clofazimine]", "Euclidean distance": 1.05}
{"Compound": "N#CCNC(=O)c1ccc(-c2ccnc(Nc3ccc(N4CCOCC4)cc3)n2)cc1 [Momelotinib (CYT387)]", "Euclidean distance": 2.48}
{"Compound": "OCc1c[nH]c2ccccc12 [Indole-3-carbinol]", "Euclidean distance": 1.05}
{"Compound": "O=C(/C=C\\n1cnc(-c2cc(C(F)(F)F)cc(C(F)(F)F)c2)n1)N1CC(F)(F)C1", "Euclidean distance": 4}
{"Compound": "COc1cc(N)c(Cl)cc1C(=O)NC1CCN(CCCOc2ccc(F)cc2)CC1OC (centres undefined) [Cisapride hydrate]", "Euclidean distance": 1.05}
{"Compound": "C[C@@](Cc1ccc(O)c(O)c1)(NN)C(=O)O [Carbidopa]", "Euclidean distance": 1.05}
{"Compound": "CC1=C(C(=O)O)N2C(=O)[C@@H](NC(=O)[C@H](N)C3=CCC=CC3)[C@H]2SC1 [Cephradine monohydrate]", "Euclidean distance": 0.618}
{"Compound": "CCOC(=O)c1ncn2c1CN(C)C(=O)c1cc(F)ccc1-2 [Flumazenil]", "Euclidean distance": 0.959}
{"Compound": "NC1(Cc2ccc(Cl)cc2)CCN(c2ncnc3[nH]ccc23)CC1", "Euclidean distance": 1.39}
